# experiment: Cmax in BALB/c mouse at 75 mg/kg, po
# Type: ADME, organism-based
# Set-up: dose 75 mg/kg, route oral
# conditionLabel: in vivo
reportedEndpoint: Cmax

{"columns": ["lineNotation", "result"],
 "data": [
  ["N#C/N=C(\\NCc1ccc(S(=O)(=O)c2cccc(OC(F)(F)F)c2)cc1)Nc1ccncc1", "47.9 µM"]
]}

---

# experiment: Tmax in BALB/c mouse at 75 mg/kg, po
# Assay type: ADME, organism-based
# Set-up: dose 75 mg/kg, route oral
# conditionLabel: in vivo

{"columns": ["lineNotation", "Tmax (h)"],
 "data": [
  ["N#C/N=C(\\NCc1ccc(S(=O)(=O)c2cccc(OC(F)(F)F)c2)cc1)Nc1ccncc1", 2]
]}

---

# experiment: Metabolic stability of the compound in mouse liver microsomes assessed as compound remaining at 1 uM after 30 mins
# Format: ADME, Microsome
# conditionLabel: read-out: Stability
Overview of recorded remaining at 0.5 h, 1 µM for various molecules

{"columns": ["lineNotation", "remaining at 0.5 h, 1 µM"],
 "data": [
  ["N#C/N=C(\\NCc1ccc(S(=O)(=O)c2cccc(C(F)(F)F)c2)cc1)Nc1ccncc1", "74%"],
  ["N#C/N=C(\\NCc1ccc(S(=O)(=O)c2ccccc2)cc1)Nc1ccncc1", "57%"],
  ["N#C/N=C(\\NCc1ccc(S(=O)(=O)Cc2ccccc2)cc1)Nc1ccncc1", "27%"],
  ["N#C/N=C(\\NCc1ccc(S(=O)(=O)c2ccccc2)cc1)Nc1cccnc1", "14%"]
]}

---

# experiment: Metabolic stability of the compound in human liver microsomes assessed as compound remaining at 1 uM after 30 mins
# Assay type: ADME
# conditionLabel: read-out: Stability
reportedEndpoint: remaining at 0.5 h, 1 µM (%)

{"columns": ["lineNotation", "measuredNumber"],
 "data": [
  ["N#C/N=C(\\NCc1ccc(S(=O)(=O)c2cccc(OC(F)(F)F)c2)cc1)Nc1ccncc1", 45],
  ["N#CN=C(NCc1ccc(S(=O)(=O)c2ccc(N3CCOCC3)nc2)cc1)Nc1ccncc1", 85],
  ["N#C/N=C(\\NCc1ccc(S(=O)(=O)c2cccc(C(F)(F)F)c2)cc1)Nc1ccncc1", 62],
  ["N#C/N=C(\\NCc1ccc(S(=O)(=O)c2cccnc2)cc1)Nc1ccncc1", 89],
  ["N#CN=C(NCc1ccc(S(=O)(=O)c2cccc3cccnc23)cc1)Nc1ccncc1", 10],
  ["N#C/N=C(\\NCc1ccc(S(=O)(=O)Cc2ccccc2)cc1)Nc1ccncc1", 27],
  ["N#C/N=C(\\NCc1ccc(S(=O)(=O)N2CC3CCC(C2)O3)cc1)Nc1cccnc1", 52],
  ["O=C(NCc1ccc(S(=O)(=O)c2ccccc2)cc1)c1cc2cnccc2[nH]1", 75],
  ["N#CN=C(NCc1ccc(S(=O)(=O)c2cc(F)cc(F)c2)cc1)Nc1ccncc1", 83],
  ["N#C/N=C(\\NCc1ccc(S(=O)(=O)N2CC3CCC(C2)O3)cc1)Nc1ccncc1", 60],
  ["COc1cccc(S(=O)(=O)c2ccc(CNC(=NC#N)Nc3ccncc3)cc2)c1", 55],
  ["N#C/N=C(\\NCc1ccc(S(=O)(=O)c2ccccc2)cc1)Nc1cccnc1", 83],
  ["N#C/N=C(\\NCc1ccc(S(=O)(=O)C2CCCCC2)cc1)Nc1ccncc1", 56],
  ["N#C/N=C(\\NCc1ccc(S(=O)(=O)c2ccccc2)cc1)Nc1ccncc1", 96]
]}

---

# experiment: Metabolic stability of the compound in mouse liver microsomes assessed as compound remaining at 1 uM after 30 mins
# Format: ADME, Microsome
# conditionLabel: read-out: Stability

{"columns": ["lineNotation", "remaining at 0.5 h, 1 µM [%]"],
 "data": [
  ["O=C(NCc1ccc(S(=O)(=O)c2ccccc2)cc1)c1cc2cnccc2[nH]1", 54],
  ["N#CN=C(NCc1ccc(S(=O)(=O)c2cc(F)cc(F)c2)cc1)Nc1ccncc1", 71],
  ["N#C/N=C(\\NCc1ccc(S(=O)(=O)c2cccnc2)cc1)Nc1ccncc1", 49],
  ["N#C/N=C(\\NCc1ccc(S(=O)(=O)c2cccc(OC(F)(F)F)c2)cc1)Nc1ccncc1", 55]
]}
